- tested_on: mouse melanocortin-3 receptor (mouse, UniProt P33033 1-323)
- Sequence (P33033 whole entry): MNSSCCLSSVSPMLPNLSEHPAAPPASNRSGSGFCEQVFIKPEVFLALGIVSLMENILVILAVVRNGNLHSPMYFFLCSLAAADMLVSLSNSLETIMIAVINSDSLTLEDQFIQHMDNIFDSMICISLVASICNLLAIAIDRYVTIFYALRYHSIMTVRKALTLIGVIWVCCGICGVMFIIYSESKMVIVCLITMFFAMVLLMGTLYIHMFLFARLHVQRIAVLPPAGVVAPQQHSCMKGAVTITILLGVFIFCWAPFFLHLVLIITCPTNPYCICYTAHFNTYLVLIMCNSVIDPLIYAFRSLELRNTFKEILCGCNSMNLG
- protocol_details: cell-based or functional assay
Square brackets hold non-standard residues; d marks the D form. Bip = N[C@@H](Cc1ccc(-c2ccccc2)cc1)C(=O)O; dPhe(4-I) = N[C@H](Cc1ccc(I)cc1)C(=O)O; d2Nal = N[C@H](Cc1ccc2ccccc2c1)C(=O)O; Tic = O=C(O)[C@@H]1Cc2ccccc2CN1
property_label: Agonist, % of NDP-MSH maximal response (% @ 100 µM)

[[record]]
binder = "Ac-[Tic]R[dPhe(4-I)][d2Nal]-NH2 [SKY4-48-46, Ac-Tic-Arg-(pI)DPhe-DNal(2')-NH2]"
property_label = "Agonist, % of NDP-MSH maximal response"
data_value = 42


[P] Ac-[Bip]R[dPhe(4-I)]F-NH2 (SMILES CC(=O)N[C@@H](Cc1ccc(-c2ccccc2)cc1)C(=O)N[C@@H](CCCNC(=N)N)C(=O)N[C@H](Cc1ccc(I)cc1)C(=O)N[C@@H](Cc1ccccc1)C(N)=O) [SKY4-48-28, Ac-Bip-Arg-(pI)DPhe-Phe-NH2]
[Q] Ac-RR[dPhe(4-I)][Bip]-NH2 [SKY4-48-2, Ac-Arg-Arg-(pI)DPhe-Bip-NH2]
Request: Which item exceeds the other in Agonist, % of NDP-MSH maximal response, P or Q ? Output the label that corresponds to your choice.
Result: P
(P: 77 % @ 100 µM, Q: 45 % @ 100 µM)
